Below, each entry is listed with its recorded Measured fresh weight inhibition rate (%).
Tested on: Aegilops tauschii
Experiment: Pot experiment, soil treatment, control of Aegilops tauschii (fresh weight, Colby)
Format: in vivo
Conditions: g ai/ha: pyroxasulfone 22.5; fluorochloridone 62.5; aclonifen 300; diflufenican 28.125; terbutryn 281.25; mixtures: both AIs at these rates; after 35 days
Reply with the number, then its unit.

>>> result("O=C(Nc1ccc(F)cc1F)c1cccnc1Oc1cccc(C(F)(F)F)c1")
"6.7%"
>>> result("Cn1nc(C(F)(F)F)c(CS(=O)(=O)C2=NOC(C)(C)C2)c1OC(F)F")
"11.6%"

Exam item: Note down Measured fresh weight inhibition rate (%) recorded for Nc1c([N+](=O)[O-])ccc(Oc2ccccc2)c1Cl
Marked response: 25.0%

Exam item: Fill in reported Measured fresh weight inhibition rate (%) for this entry: CCNc1nc(NC(C)(C)C)nc(SC)n1
Marked response: 12.8%

###

Test system: Lolium multiflorum Lamk
Assay: Pot experiment, soil treatment, control of Lolium multiflorum Lamk (fresh weight, Colby)
Assay type: in vivo
Details: g ai/ha: pyroxasulfone 11.25; fluorochloridone 31.25; aclonifen 150; diflufenican 14.0625; terbutryn 140.625; mixtures: both AIs at these rates; after 35 days
metric: Measured fresh weight inhibition rate (%)

In the examples that follow, each entry is paired with its recorded Measured fresh weight inhibition rate (%).
>>> result("Nc1c([N+](=O)[O-])ccc(Oc2ccccc2)c1Cl")
"89.1%"
>>> result("CCNc1nc(NC(C)(C)C)nc(SC)n1")
"94.3%"
>>> result("O=C(Nc1ccc(F)cc1F)c1cccnc1Oc1cccc(C(F)(F)F)c1")
"87.0%"

Could you now look at the following compound, please?
Exam item: Annotate the compound Cn1nc(C(F)(F)F)c(CS(=O)(=O)C2=NOC(C)(C)C2)c1OC(F)F with its measured Measured fresh weight inhibition rate (%).
Marked response: 68.2%

###

System: Lolium multiflorum Lamk
Assay: Pot experiment, soil treatment, control of Lolium multiflorum Lamk (fresh weight, Colby)
Format: in vivo
Details: g ai/ha: pyroxasulfone 90; fluorochloridone 250; aclonifen 1200; diflufenican 112.5; terbutryn 1125; mixtures: both AIs at these rates; after 35 days
Experimental: Referring to an article of Colby, S. R. i.e., Calculation of the synergistic and antagonistic response of herbicide combinations. E0-E value is calculated to evaluate the combined effect of pyroxasulfone and the second herbicide selected from the group consisting of fluorochloridone, aclonifen, diflufenican and terbutryn on the selected weeds. […]
As shown below, each of these molecules has a reported Measured fresh weight survival rate (%) - E value.
Note to self: number, then unit, no commentary.

Worked examples follow.
>>> result("Nc1c([N+](=O)[O-])ccc(Oc2ccccc2)c1Cl")
"0.0%"
>>> result("O=C(Nc1ccc(F)cc1F)c1cccnc1Oc1cccc(C(F)(F)F)c1")
"0.5%"
>>> result("Cn1nc(C(F)(F)F)c(CS(=O)(=O)C2=NOC(C)(C)C2)c1OC(F)F")
"0.0%"

Exam item: State its Measured fresh weight survival rate (%) - E for this molecule: CCNc1nc(NC(C)(C)C)nc(SC)n1
Marked response: 0.0%

###

Reported Measured fresh weight inhibition rate (%) is given for each of the following molecules.
Test system: Lolium multiflorum Lamk
Test: Pot experiment, soil treatment, control of Lolium multiflorum Lamk (fresh weight, Colby)
Type: in vivo
Details: g ai/ha: pyroxasulfone 45; fluorochloridone 125; aclonifen 600; diflufenican 56.25; terbutryn 562.5; mixtures: both AIs at these rates; after 35 days
Report the figure in % without appending any unit label.

The examples below pair each entry with its known result.
>>> result_number("Nc1c([N+](=O)[O-])ccc(Oc2ccccc2)c1Cl")
99.5
>>> result_number("Cn1nc(C(F)(F)F)c(CS(=O)(=O)C2=NOC(C)(C)C2)c1OC(F)F")
100.0
>>> result_number("O=C(Nc1ccc(F)cc1F)c1cccnc1Oc1cccc(C(F)(F)F)c1")
93.2

# next molecule below
Exam item: Give the reported Measured fresh weight inhibition rate (%) for this molecule. CCNc1nc(NC(C)(C)C)nc(SC)n1
Marked response: 100.0

###

Parameter: Measured fresh weight inhibition rate (%). Scope: all listed entries.
Tested on: Aegilops tauschii
Test: Pot experiment, soil treatment, control of Aegilops tauschii (fresh weight, Colby)
Assay type: in vivo
Settings: g ai/ha: pyroxasulfone 11.25; fluorochloridone 31.25; aclonifen 150; diflufenican 14.0625; terbutryn 140.625; mixtures: both AIs at these rates; after 35 days

Exam item: Send back Aegilops tauschii Measured fresh weight inhibition rate (%) of Cn1nc(C(F)(F)F)c(CS(=O)(=O)C2=NOC(C)(C)C2)c1OC(F)F [pyroxasulfone] only.
Marked response: 4.9%

###

Tested on: Bromus japonicus
Assay: Pot experiment, soil treatment, control of Bromus japonicus (fresh weight, Colby)
Format: in vivo
Conditions: g ai/ha: pyroxasulfone 45; fluorochloridone 125; aclonifen 600; diflufenican 56.25; terbutryn 562.5; mixtures: both AIs at these rates; after 35 days
Protocol: Referring to an article of Colby, S. R. i.e., Calculation of the synergistic and antagonistic response of herbicide combinations. E0-E value is calculated to evaluate the combined effect of pyroxasulfone and the second herbicide selected from the group consisting of fluorochloridone, aclonifen, diflufenican and terbutryn on the selected weeds. […]
metric: Measured fresh weight survival rate (%) - E
Value expressed in %; do not type the unit.

In the examples that follow, each entry is paired with its recorded Measured fresh weight survival rate (%) - E.
>>> result_number("CCNc1nc(NC(C)(C)C)nc(SC)n1 [terbutryn]")
0.0
>>> result_number("Nc1c([N+](=O)[O-])ccc(Oc2ccccc2)c1Cl [aclonifen, 2-chloro-6-nitrio-3-phenoxyaniline]")
0.0
>>> result_number("O=C(Nc1ccc(F)cc1F)c1cccnc1Oc1cccc(C(F)(F)F)c1 [diflufenican]")
19.6

Exam item: Read off the recorded Measured fresh weight survival rate (%) - E for Cn1nc(C(F)(F)F)c(CS(=O)(=O)C2=NOC(C)(C)C2)c1OC(F)F [pyroxasulfone]
Marked response: 0.0

###

Listed here are compounds together with their documented Measured fresh weight inhibition rate (%).
System: Aegilops tauschii
Assay: Pot experiment, soil treatment, control of Aegilops tauschii (fresh weight, Colby)
Type: in vivo
Conditions: g ai/ha: pyroxasulfone 45; fluorochloridone 125; aclonifen 600; diflufenican 56.25; terbutryn 562.5; mixtures: both AIs at these rates; after 35 days
Give a bare numeral; the unit % is implied.

>>> result_number("O=C(Nc1ccc(F)cc1F)c1cccnc1Oc1cccc(C(F)(F)F)c1 [diflufenican]")
4.3
>>> result_number("CCNc1nc(NC(C)(C)C)nc(SC)n1 [terbutryn]")
46.3
>>> result_number("Cn1nc(C(F)(F)F)c(CS(=O)(=O)C2=NOC(C)(C)C2)c1OC(F)F [pyroxasulfone]")
47.6

// below: Measured fresh weight inhibition rate (%) requested for another compound
Exam item: Given the compound Nc1c([N+](=O)[O-])ccc(Oc2ccccc2)c1Cl [aclonifen, 2-chloro-6-nitrio-3-phenoxyaniline] , write its reported Measured fresh weight inhibition rate (%).
Marked response: 26.2

###

Tested on: Bromus japonicus
Experiment: Pot experiment, soil treatment, control of Bromus japonicus (fresh weight, Colby)
Assay type: in vivo
Conditions: g ai/ha: pyroxasulfone 11.25; fluorochloridone 31.25; aclonifen 150; diflufenican 14.0625; terbutryn 140.625; mixtures: both AIs at these rates; after 35 days
Reported values of Measured fresh weight survival rate (%) - E for individual entries
Field format: number, assumed %, no unit text.

>>> result_number("Nc1c([N+](=O)[O-])ccc(Oc2ccccc2)c1Cl [aclonifen, 2-chloro-6-nitrio-3-phenoxyaniline]")
54.6
>>> result_number("O=C(Nc1ccc(F)cc1F)c1cccnc1Oc1cccc(C(F)(F)F)c1 [diflufenican]")
40.2
>>> result_number("Cn1nc(C(F)(F)F)c(CS(=O)(=O)C2=NOC(C)(C)C2)c1OC(F)F [pyroxasulfone]")
25.8

Note: attention shifts to another entry.
Exam item: For the compound CCNc1nc(NC(C)(C)C)nc(SC)n1 [terbutryn] , report Measured fresh weight survival rate (%) - E.
Marked response: 0.0

###

System: Aegilops tauschii
Assay: Pot experiment, soil treatment, control of Aegilops tauschii (fresh weight, Colby)
Type: in vivo
Conditions: g ai/ha: pyroxasulfone 360; fluorochloridone 1000; aclonifen 4800; diflufenican 450; terbutryn 4500; mixtures: both AIs at these rates; after 35 days
metric: Measured fresh weight survival rate (%) - E
State the answer as a number, implicitly in %.

>>> result_number("CCNc1nc(NC(C)(C)C)nc(SC)n1")
0.0
>>> result_number("Nc1c([N+](=O)[O-])ccc(Oc2ccccc2)c1Cl")
2.4
>>> result_number("O=C(Nc1ccc(F)cc1F)c1cccnc1Oc1cccc(C(F)(F)F)c1")
62.8

Exam item: Return Measured fresh weight survival rate (%) - E for the following compound: Cn1nc(C(F)(F)F)c(CS(=O)(=O)C2=NOC(C)(C)C2)c1OC(F)F
Marked response: 2.4

###

Each entry below carries its recorded Measured fresh weight survival rate (%) - E.
Tested on: Aegilops tauschii
Test: Pot experiment, soil treatment, control of Aegilops tauschii (fresh weight, Colby)
Type: in vivo
Conditions: g ai/ha: pyroxasulfone 22.5; fluorochloridone 62.5; aclonifen 300; diflufenican 28.125; terbutryn 281.25; mixtures: both AIs at these rates; after 35 days
Just the number in %, nothing appended.

Example entries begin here.
>>> result_number("Cn1nc(C(F)(F)F)c(CS(=O)(=O)C2=NOC(C)(C)C2)c1OC(F)F [pyroxasulfone]")
88.4
>>> result_number("CCNc1nc(NC(C)(C)C)nc(SC)n1 [terbutryn]")
87.2
>>> result_number("O=C(Nc1ccc(F)cc1F)c1cccnc1Oc1cccc(C(F)(F)F)c1 [diflufenican]")
93.3

Exam item: Return Measured fresh weight survival rate (%) - E for the following compound: Nc1c([N+](=O)[O-])ccc(Oc2ccccc2)c1Cl [aclonifen, 2-chloro-6-nitrio-3-phenoxyaniline]
Marked response: 75.0
